# assayComment: compound activity on host-cell Toxoplasma growth – dose response (AID 1259420);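 note: host cells were HeLa; final incubation lasted 72 hours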
# conditionLabel: Toxoplasma gondii growth in host cells, no IFN-gamma; at 19.5 µM unless noted
Among all 1,000 compounds or so, about 250 (25%) were called active. Roughly 31% stayed inconclusive and do not appear here. These entries were drawn from the full list. Entries with a potency or affinity are not part of this list.
observationType: max activity

Completed entries (count: 4):
compound	result
NC(=O)CN1CCOCCOCCN(CC(N)=O)CCOCC1	5.9% [at 5 µM] (inactive)
CC(=O)NCC(=O)N1CCC2(CC1)CC(c1ccccc1)C(=O)N2 (stereo not given)	-12.4% [at 10 µM] (inactive)
Fc1ccccc1-c1ccc(C2[C@H]3CNC[C@@H]2N3CC2CC2)cc1 (stereo not given in full)	11.6% (inactive)
CCOC(=O)c1nn(Cc2ccccc2)c2c1CN(C(=O)CN1CC(c3ccccc3)CC1=O)CC2 (stereo not given)	-13.6% (inactive)

Okay, now this compound:
Q: Recorded max activity for N#C[C@H]1N[C@@H](CO)[C@@H]1c1ccc(C#CC2CCCCC2)cc1 , please?
Result: 28% [at 21 µM] (inactive)
